Biological target: Neurogenic locus notch homolog protein 3 (Homo sapiens) (UniProt Q9UM47)
Sequence (Q9UM47 whole entry, looked up): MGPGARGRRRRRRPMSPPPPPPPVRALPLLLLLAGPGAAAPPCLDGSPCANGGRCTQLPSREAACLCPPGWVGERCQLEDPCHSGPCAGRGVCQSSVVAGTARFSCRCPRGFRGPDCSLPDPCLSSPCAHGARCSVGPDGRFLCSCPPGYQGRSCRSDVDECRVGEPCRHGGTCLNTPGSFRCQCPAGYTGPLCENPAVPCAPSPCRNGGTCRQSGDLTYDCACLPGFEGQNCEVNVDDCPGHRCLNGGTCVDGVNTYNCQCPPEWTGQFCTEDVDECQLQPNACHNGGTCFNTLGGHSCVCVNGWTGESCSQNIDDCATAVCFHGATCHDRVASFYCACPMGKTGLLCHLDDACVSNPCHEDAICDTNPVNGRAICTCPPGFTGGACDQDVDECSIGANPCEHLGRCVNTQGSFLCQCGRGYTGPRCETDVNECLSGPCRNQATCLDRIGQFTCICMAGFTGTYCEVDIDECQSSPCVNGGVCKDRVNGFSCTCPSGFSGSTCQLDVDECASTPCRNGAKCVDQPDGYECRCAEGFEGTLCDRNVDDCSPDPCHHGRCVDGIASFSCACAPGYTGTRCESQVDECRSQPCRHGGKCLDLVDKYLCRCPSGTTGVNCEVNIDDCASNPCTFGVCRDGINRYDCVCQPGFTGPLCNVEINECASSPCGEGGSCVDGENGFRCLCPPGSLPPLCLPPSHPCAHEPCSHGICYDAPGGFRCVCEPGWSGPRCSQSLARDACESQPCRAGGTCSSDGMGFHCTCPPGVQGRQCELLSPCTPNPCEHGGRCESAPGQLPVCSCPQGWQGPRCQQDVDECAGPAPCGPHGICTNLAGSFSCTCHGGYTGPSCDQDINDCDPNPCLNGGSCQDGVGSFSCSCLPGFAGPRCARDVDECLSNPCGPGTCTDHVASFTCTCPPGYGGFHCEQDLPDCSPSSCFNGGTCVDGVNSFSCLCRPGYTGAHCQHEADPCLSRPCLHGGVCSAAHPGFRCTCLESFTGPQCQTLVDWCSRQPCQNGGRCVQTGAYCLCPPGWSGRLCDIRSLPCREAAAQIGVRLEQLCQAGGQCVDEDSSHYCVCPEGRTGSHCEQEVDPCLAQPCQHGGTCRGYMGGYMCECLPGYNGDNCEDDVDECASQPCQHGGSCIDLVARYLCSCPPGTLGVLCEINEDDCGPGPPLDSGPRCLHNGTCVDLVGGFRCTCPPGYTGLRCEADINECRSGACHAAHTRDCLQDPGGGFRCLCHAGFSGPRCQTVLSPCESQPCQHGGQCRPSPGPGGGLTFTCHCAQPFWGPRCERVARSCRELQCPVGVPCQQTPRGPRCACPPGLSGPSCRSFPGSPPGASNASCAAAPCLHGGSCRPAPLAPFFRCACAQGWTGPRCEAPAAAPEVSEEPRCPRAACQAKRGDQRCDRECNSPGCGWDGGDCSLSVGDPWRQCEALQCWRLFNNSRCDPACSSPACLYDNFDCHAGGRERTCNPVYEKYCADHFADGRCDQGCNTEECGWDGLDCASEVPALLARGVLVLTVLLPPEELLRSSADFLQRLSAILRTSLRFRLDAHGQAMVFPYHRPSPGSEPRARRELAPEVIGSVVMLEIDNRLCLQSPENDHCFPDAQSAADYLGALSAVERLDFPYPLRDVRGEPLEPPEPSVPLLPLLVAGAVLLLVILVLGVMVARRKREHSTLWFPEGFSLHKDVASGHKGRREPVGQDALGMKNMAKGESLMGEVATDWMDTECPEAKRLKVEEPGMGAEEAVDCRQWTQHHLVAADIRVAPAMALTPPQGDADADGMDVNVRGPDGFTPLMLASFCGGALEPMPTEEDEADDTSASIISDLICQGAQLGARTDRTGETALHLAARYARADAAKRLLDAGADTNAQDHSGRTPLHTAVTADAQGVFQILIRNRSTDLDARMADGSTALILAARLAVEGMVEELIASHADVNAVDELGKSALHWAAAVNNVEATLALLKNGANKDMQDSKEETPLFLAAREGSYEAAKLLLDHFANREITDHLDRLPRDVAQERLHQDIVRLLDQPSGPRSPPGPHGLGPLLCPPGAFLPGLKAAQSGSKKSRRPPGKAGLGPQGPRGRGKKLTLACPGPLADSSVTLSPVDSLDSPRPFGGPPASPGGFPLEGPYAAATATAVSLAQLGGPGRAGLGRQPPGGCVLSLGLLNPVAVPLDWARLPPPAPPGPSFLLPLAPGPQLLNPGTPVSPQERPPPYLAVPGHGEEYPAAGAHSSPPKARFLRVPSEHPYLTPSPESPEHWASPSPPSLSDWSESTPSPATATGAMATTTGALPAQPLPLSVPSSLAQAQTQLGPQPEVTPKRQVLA
Test: small molecules binding NOTCH3 protein – biochemical, 635/667 nm fluorescence, primary screen (AID 1096)
Details: small-molecule microarray, 635 nm fluorescence, higher = more signal
Values of composite z-score greater than or equal to 0.9 map to met; values below map to not met.

**Q:** composite z-score >= 0.9 for COC(=O)[C@@]1(Cc2ccc(OC)cc2)[C@H]2c3cc(C(=O)N4CCCC4)n(CCCNc4ncc(C(F)(F)F)cc4Cl)c3C[C@H]2CN1C(=O)c1ccccc1 ?
**A:** not met

**Q:** Could you tell me if the measured composite z-score of COc1ccc(C(=O)Nc2cccc(CN3C(=O)[C@]4(O[C@H](CCn5cc(CCO)nn5)[C@@H]([Si](C)(C)c5ccc(OC)cc5)[C@@H]4C)c4ccccc43)c2)cc1 reaches 0.9 or more?
**A:** not met

**Q:** Could you tell me if the measured composite z-score of C#CCN1[C@H](/C=C/C2CC2)[C@H](Cc2ccccc2)OC(=O)[C@@H]1Cc1ccccc1 reaches 0.9 or more?
**A:** not met

**Q:** Is the recorded value of composite z-score equal to or greater than 0.9 for this molecule? [N-]=[N+]=Nc1ccccc1C[C@]1(C(=O)N2CCCCC2)COC(c2ccc(OCCCO)cc2)=N1
**A:** met

**Q:** Is reported composite z-score greater than or equal to 0.9 here: COc1ccc([Si](C)(C)[C@H]2[C@H](CCO)O[C@@]3(C(=O)N(Cc4ccccc4)c4ccc(N5CCCCC5=O)cc43)[C@@H]2C)cc1
**A:** met

**Q:** Reported composite z-score reaches at least 0.9 for NC(=O)[C@@H]1[C@H]2C(=O)O[C@H](c3ccccc3)[C@H](c3ccccc3)N2[C@H](c2ccc(OCCO)cc2)[C@@]12C(=O)Nc1ccc(C#CC3=CCCCC3)cc12 ?
**A:** met
